protocol text: IUF_NPC2-5_cell_number_120hr: Cell Number Assessment at 120 hours in the Leibniz Research Institute for Environmental Medicine (IUF) Neural Progenitor Cell Migration and Differentiation Assay (NPC2-5) (AID 2284308);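 also: count of Hoechst-stained nuclei in migration zone around plated human neural progenitor spheres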
The source made the active and inactive calls. The calls were made as follows: active = hit-call score of the fitted dose curve at least 0.9, where 1 is the maximum; inactive = score below 0.9.
Field 'call' accepts active, inactive

Please review the entries below; each comes with its answer.
>>> print(df.to_string())
                                   compound       cat
0  CN(C)[C@@H]1C(=O)C(C(N)=O)=C(O)[C@@]2(O)C(=O)C3=C(O)c4c(O)cccc4[C@@](C)(O)[C@H]3[C@H](O)[C@@H]12    active
1  CCOP(=O)(NC(C)C)Oc1ccc(SC)c(C)c1 (stereo unspecified)  inactive
2  O=[N+]([O-])c1cc(C(F)(F)F)c(Cl)c([N+](=O)[O-])c1Nc1ncc(C(F)(F)F)cc1Cl    active
3                                 S=C1NCCN1  inactive
4  CON=C(C(=O)OC)c1ccccc1CON=C(C)c1cccc(C(F)(F)F)c1  inactive

Okay, next one:
Outcome logged for CCOP(=S)(OCC)SCCSCC in this assay:
inactive

These entries and their values trace back to PubChem BioAssay (EPA / NIEHS).
